Source of measurements: paper PMC3792221

- target.or.system: bovine adrenal DBH (Bos taurus, UniProt P15101)
- Sequence (P15101 whole entry): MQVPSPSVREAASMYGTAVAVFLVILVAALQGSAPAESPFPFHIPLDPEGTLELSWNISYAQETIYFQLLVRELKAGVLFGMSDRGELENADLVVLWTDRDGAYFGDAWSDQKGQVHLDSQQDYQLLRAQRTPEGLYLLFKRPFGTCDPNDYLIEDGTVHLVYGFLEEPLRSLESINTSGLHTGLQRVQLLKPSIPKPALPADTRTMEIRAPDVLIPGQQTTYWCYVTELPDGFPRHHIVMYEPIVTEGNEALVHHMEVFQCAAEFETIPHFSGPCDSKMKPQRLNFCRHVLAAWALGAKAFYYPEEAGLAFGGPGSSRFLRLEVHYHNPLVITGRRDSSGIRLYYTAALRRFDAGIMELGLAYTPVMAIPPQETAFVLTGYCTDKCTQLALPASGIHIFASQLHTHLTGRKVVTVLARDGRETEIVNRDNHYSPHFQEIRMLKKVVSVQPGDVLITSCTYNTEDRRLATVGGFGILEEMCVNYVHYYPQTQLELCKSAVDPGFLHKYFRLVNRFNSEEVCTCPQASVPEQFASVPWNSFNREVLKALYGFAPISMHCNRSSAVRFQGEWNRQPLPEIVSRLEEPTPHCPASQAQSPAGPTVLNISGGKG
- method.summary: DBH inhibition assay in vitro
- Assay type: biochemical
- run.conditions: IC50 DBH
measured.metric: IC50 (µM)
Give bare numbers, in µM.

(Q) // query IC50 value for entry C[C@H]1[C@H](C)CC[C@]2(C(=O)O)CC[C@]3(C)C(=CC[C@@H]4[C@@]5(C)CC[C@H](O)C(C)(C)[C@@H]5CC[C@]43C)[C@H]12
(A) 215

====

- target.or.system: MAO-A (rat brain mitochondrial MAO) (Rattus norvegicus, UniProt P21396)
- Sequence (P21396 whole entry): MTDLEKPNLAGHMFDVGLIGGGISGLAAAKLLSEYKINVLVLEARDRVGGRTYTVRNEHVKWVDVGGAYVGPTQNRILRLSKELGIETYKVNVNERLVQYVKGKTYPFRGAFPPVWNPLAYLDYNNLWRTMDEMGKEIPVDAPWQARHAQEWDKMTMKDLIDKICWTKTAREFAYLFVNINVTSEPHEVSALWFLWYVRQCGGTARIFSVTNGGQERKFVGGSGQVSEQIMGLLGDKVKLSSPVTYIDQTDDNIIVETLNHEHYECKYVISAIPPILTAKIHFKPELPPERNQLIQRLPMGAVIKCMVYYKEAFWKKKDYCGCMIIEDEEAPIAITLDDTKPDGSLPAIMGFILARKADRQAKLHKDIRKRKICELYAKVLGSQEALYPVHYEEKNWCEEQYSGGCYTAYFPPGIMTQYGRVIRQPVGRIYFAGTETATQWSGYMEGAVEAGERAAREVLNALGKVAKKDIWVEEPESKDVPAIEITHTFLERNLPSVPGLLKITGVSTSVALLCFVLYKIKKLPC
- method.summary: MAO-A inhibition assay in vitro
- Type: biochemical
- run.conditions: IC50 MAO-A (abstract)
measured.metric: pIC50
Give bare numbers, as −log10 of the molar value.

(Q) // query pIC50 value for entry O=C(O)c1ccc(O)c(O)c1 [Compound 1, protocatechuic acid]
(A) 2.62
